# Target or test system: Aryl hydrocarbon receptor (Homo sapiens)
# Protocol details: qHTS assay to identify small molecule that activate the aryl hydrocarbon receptor (AhR) signaling pathway (AID 743085); note: nearly all actives have a fitted effect of over 15% in size;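 for activation: HG2L7.5c1 human HepG2 liver cells with stably integrated DRE-driven firefly reporter; % is set by controls: 0 for no effect and ±100 for the full control effect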
# Run parameters: HepG2 AhR-luc (HG2L7.5c1), luciferase, 24 h; series mostly up to 70.3 µM
Inconclusive results are not listed. Calls of active or inactive are those of the source. Calls come from the whole dose curve; as a rule, active = well fitted activation curve with a large enough effect in the repeat runs; inconclusive = weak or mixed curves; inactive = no such curve, though single readings can be large or run the other way.
Respond using exactly one of the listed classes: 1 (active), -1 (inactive)

[[record]]
compound = "Cc1ccc(C(=O)c2ccccc2)cc1"
class_label = -1


IN: Which outcome was entered for the compound `CCCCCCCCCCCCCCC(=O)O` in this test?
OUT: -1

IN: Which outcome was entered for the compound `CCCCCC(=O)OCCc1ccccc1` in this test?
OUT: -1

IN: Which outcome was entered for the compound `CCOC(=O)c1cnc2c(cnn2CC)c1NN=C(C)C` in this test?
OUT: 1

IN: Which outcome was entered for the compound CCC(C(=O)NC(=O)NC(C)=O)c1ccccc1 (stereo not drawn) in this test?
OUT: -1

IN: Which outcome was entered for the compound `CC1=NS(=O)(=O)c2cc(Cl)ccc2N1` in this test?
OUT: -1

IN: Which outcome was entered for the compound `C1CCC2=NCCCN2CC1` in this test?
OUT: -1

IN: Which outcome was entered for the compound `CCCO[Si](OCCC)(OCCC)OCCC` in this test?
OUT: -1

IN: Which outcome was entered for the compound CCN[C@@H]1C[C@H](N)[C@@H](OC2OC(CN)=CCC2N)[C@H](O)[C@H]1O[C@H]1OC[C@](C)(O)[C@H](NC)[C@H]1O (stereo partly drawn) in this test?
OUT: -1

IN: Which outcome was entered for the compound CC/C=C\CCOC(C)OCC (stereo not drawn) in this test?
OUT: -1

IN: Which outcome was entered for the compound Nc1ccn([C@@H]2O[C@H](CO)[C@@H](O)C2O)c(=O)n1 (stereo partly drawn) in this test?
OUT: -1

IN: Which outcome was entered for the compound `COC(=O)Nc1ccc(Cl)c(Cl)c1` in this test?
OUT: 1

IN: Which outcome was entered for the compound `[Ca+2]` in this test?
OUT: -1

----------
# Protocol details: qHTS assay to test for compound auto fluorescence at 590 nm (red) in HepG2 cells (AID 720674); note: % is set by controls: 0 for no effect and ±100 for the full control effect
# Run parameters: HepG2 autofluorescence, red 540/590 nm, 1 h; series mostly up to 91.3 µM
Calls of active or inactive are those of the source. The call rests on the fitted dose curve; in most records, active means well fitted curve in the direction sought with a large enough effect in the repeat runs; inconclusive means weak or mixed curves; inactive means flat fitted curve, though single readings scatter.
Test readout: fluorescence, relative to Rose Bengal

[[record]]
molecule = "CCCCCC(=O)OCCc1ccccc1"
result = "inactive"

[[record]]
molecule = "OCCc1ccccn1"
result = "inactive"

[[record]]
molecule = "C=CCCC(=O)O"
result = "inactive"

[[record]]
molecule = "O=Cc1cccc(Br)c1"
result = "inactive"

[[record]]
molecule = "C[N+]1(CC2COC(c3ccccc3)(c3ccccc3)O2)CCCCC1 (configuration not stated)"
result = "inactive"

[[record]]
molecule = "CC(CC=O)CC(C)(C)C (configuration not stated)"
result = "inactive"


Now for the molecule whose fluorescence, relative to Rose Bengal we want.
IN: For the molecule COCCOC[C@H](CC1(C(=O)NC2CCC(C(=O)O)CC2)CCCC1)C(=O)Oc1ccc2c(c1)CCC2 (some centres not stated) , what fluorescence, relative to Rose Bengal is on record?
OUT: inactive

----------
# Protocol details: Human pregnane X receptor (PXR) small molecule agonists, qHTS cell viability counter screen (AID 1346977); note: % is set by controls: 0 for no effect and ±100 for the full control effect; nearly all actives have a fitted effect of over 50% in size
# Run parameters: PXR-Luc HepG2 viability, CellTiter-Fluor, 24 h; series mostly up to 92.4 µM
# Excerpt: U.S. Tox21 Program National Center for Advancing Translational Sciences [NCATS] NIH Chemical Genomics Center [NCGC] U.S. Environmental Protection Agency [EPA] National Institutes of Environmental Health Sciences [NIEHS] National Toxicology Program [NTP] U.S. Food and Drug Administration [FDA] […]
Inconclusive results are not listed. Active and inactive are the calls of the source. Calls follow the shape of the dose curve; as a rule, active = well fitted cell-killing curve with a large enough effect in the repeat runs; inconclusive = weak or mixed curves, or effect the other way; inactive = flat fitted curve, though single readings scatter.
Test readout: activity change, negative = cytotoxicity

As a guide, the following entries are already answered.
[[record]]
compound = "CC(C)(C)C(=O)Oc1ccc(S(=O)(=O)Nc2ccccc2C(=O)NCC(=O)O)cc1"
result = "inactive"

[[record]]
compound = "O=[N+]([O-])c1cncn1CCN1CCOCC1"
result = "inactive"

[[record]]
compound = "CCCCN1C=CN(C)C1"
result = "-1.91% [at 19 µM] (inactive)"

[[record]]
compound = "CC(C)(C)c1ccc(-c2ccc(C(C)(C)C)cc2)cc1"
result = "inactive"


IN: For the compound `Cc1ccnc(NS(=O)(=O)c2ccc(N)cc2)n1` , what activity change, negative = cytotoxicity is on record?
OUT: inactive

IN: For the compound CC1=CCC(O)(C(C)C)CC1 (configuration not stated) , what activity change, negative = cytotoxicity is on record?
OUT: inactive

IN: For the compound `O=C(O)CCCC[P+](c1ccccc1)(c1ccccc1)c1ccccc1` , what activity change, negative = cytotoxicity is on record?
OUT: inactive
